System: S. aureus ATCC 6538
Experiment: MIC by broth microdilution, S. aureus
Type: cell-based
Conditions: Staphylococcus aureus, ATCC6538, No Zinc; read-out: S. aureus ATCC 6538 MIC
REPORTED_ENDPOINT: MIC (µg/mL)
The reply should contain only the number, in µg/mL.

IN: Using the record for C=CS(=O)(=O)Nc1cccc2ccc(CN(C)C)nc12 [ZDR500] , report its MIC.
OUT: 256

IN: Param item = CC(=O)NCc1ccc2cccc(NS(=O)(=O)c3ccc(C(F)(F)F)cc3)c2n1 [ZDR185] ; retrieve measured MIC.
OUT: 256

IN: Need MIC, item COCCOCCOCCNCc1ccc2cccc(NS(=O)(=O)c3ccc(C(F)(F)F)cc3)c2n1 [ZDR132]
OUT: 64

IN: What value of MIC has been recorded for this entry: O=S(=O)(Nc1cccc2ccc(CNC(CO)CO)nc12)c1ccc(C(F)(F)F)cc1 [ZDR092]
OUT: 32

IN: Tell me the measured MIC of CN(C)Cc1ccc2cccc(NS(=O)(=O)c3ccc(F)cc3)c2n1 [ZDR065] , please.
OUT: 256

IN: // query MIC value for entry CN(C)Cc1ccc2cccc(NS(=O)(=O)c3ccc(Cl)nc3)c2n1 [ZDR322]
OUT: 128

IN: For the compound Cc1cc(CS(=O)(=O)Nc2cccc3ccc(CN(C)C)nc23)no1 [ZDR501] , what MIC is on record?
OUT: 256

IN: Using the record for O=S(=O)(Nc1cccc2ccc(CNCC(F)F)nc12)c1ccc(C(F)(F)F)cc1 [ZDR100] , report its MIC.
OUT: 32

IN: I'd like to know its MIC. The compound in question is COCCOCCNCc1ccc2cccc(NS(=O)(=O)c3ccc(C(F)(F)F)cc3)c2n1 [ZDR131]
OUT: 64

IN: I'd like to know its MIC. The compound in question is O=S(=O)(Nc1cccc2ccc(CNC3CC3)nc12)c1ccc(C(F)(F)F)cc1 [ZDR086]
OUT: 64

IN: Given O=S(=O)(Nc1cccc2ccc(CN3CCCCCC3)nc12)c1ccc(C(F)(F)F)cc1 [ZDR408] , state its recorded MIC.
OUT: 64

IN: What MIC value was documented for this compound, COC(=O)c1ccc(S(=O)(=O)Nc2cccc3ccc(CN(C)C)nc23)cc1 [ZDR069] ?
OUT: 256

IN: Report MIC for O=S(=O)(Nc1cccc2ccc(CN3CCCC3)nc12)c1ccc(C(F)(F)F)cc1 [ZDR407] please.
OUT: 64

IN: # lookup: MIC of CN(C)CC(=O)NCc1ccc2cccc(NS(=O)(=O)c3ccc(C(F)(F)F)cc3)c2n1 [ZDR205]
OUT: 128
